The reported numbers originate from the supplement of paper PMC7877785.

- run_description: self-splicing fitness, log relative to wild type (ln ratio); higher = more splicing; Tetrahymena group I intron in knt gene, E. coli kanamycin selection, DiMSum; sequences stand for … in CUCUCU…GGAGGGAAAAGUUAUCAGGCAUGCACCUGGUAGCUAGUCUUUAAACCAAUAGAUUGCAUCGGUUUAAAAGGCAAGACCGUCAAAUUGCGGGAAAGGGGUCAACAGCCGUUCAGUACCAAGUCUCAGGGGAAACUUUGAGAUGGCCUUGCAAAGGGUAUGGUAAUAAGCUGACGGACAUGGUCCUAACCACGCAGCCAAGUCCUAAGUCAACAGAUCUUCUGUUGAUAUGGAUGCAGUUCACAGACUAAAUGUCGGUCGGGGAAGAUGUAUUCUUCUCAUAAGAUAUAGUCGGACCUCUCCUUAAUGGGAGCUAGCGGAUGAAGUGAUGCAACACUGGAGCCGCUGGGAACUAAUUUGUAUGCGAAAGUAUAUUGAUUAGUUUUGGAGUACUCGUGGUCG;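 also: selection with 25 µg/mL kanamycin versus none on LB agar overnight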
- settings: 30 °C
Entry flag: MET if self-splicing fitness (ln) reaches -3; NOT MET if it does not.

Q: Is self-splicing fitness (ln) at least -3? Consider "AUAGAGCAAUAUUACGCUCC"
Result: MET

Q: Is self-splicing fitness (ln) at least -3? Consider "ACUGAGCAAUAUUACGAUAG"
Result: NOT MET

Q: Is self-splicing fitness (ln) at least -3? Consider "UGUCAGCAAUAUUACGGCAC"
Result: MET

Q: Is self-splicing fitness (ln) at least -3? Consider "CCAGAGCAAUAUUACGUUUA"
Result: NOT MET

Q: Is self-splicing fitness (ln) at least -3? Consider "CAUAAGCAAUAUUACGUAAA"
Result: NOT MET

Q: Is self-splicing fitness (ln) at least -3? Consider "AGACAGCAAUAUUACGGGAG"
Result: NOT MET

Q: Is self-splicing fitness (ln) at least -3? Consider "CUUGAGCAAUAUUACGACCG"
Result: MET

Q: Is self-splicing fitness (ln) at least -3? Consider "CUUGAGCAAUAUUACGUUAG"
Result: NOT MET

Q: Is self-splicing fitness (ln) at least -3? Consider "ACAGAGCAAUAUUACGGUGG"
Result: NOT MET

Q: Is self-splicing fitness (ln) at least -3? Consider "GCAUAGCAAUAUUACGAUGC"
Result: MET

Q: Is self-splicing fitness (ln) at least -3? Consider "CAGGAGCAAUAUUACGUGUC"
Result: NOT MET

Q: Is self-splicing fitness (ln) at least -3? Consider "UAGAAGCAAUAUUACGACAU"
Result: MET

Q: Is self-splicing fitness (ln) at least -3? Consider "CUUCAGCAAUAUUACGGUCG"
Result: MET

Q: Is self-splicing fitness (ln) at least -3? Consider "UGAAAGCAAUAUUACGUCAG"
Result: MET

Q: Is self-splicing fitness (ln) at least -3? Consider "AGUCAGCAAUAUUACGUCGU"
Result: MET

Q: Is self-splicing fitness (ln) at least -3? Consider "UUUUAGCAAUAUUACGAGAA"
Result: MET

Q: Is self-splicing fitness (ln) at least -3? Consider "CUUGAGCAAUAUUACGAAGA"
Result: MET

Q: Is self-splicing fitness (ln) at least -3? Consider "UGUAAGCAAUAUUACGUGUC"
Result: NOT MET

Q: Is self-splicing fitness (ln) at least -3? Consider "GUAGAGCAAUAUUACGGCUC"
Result: MET

Q: Is self-splicing fitness (ln) at least -3? Consider "AUGCAGCAAUAUUACGUAGC"
Result: NOT MET

Q: Is self-splicing fitness (ln) at least -3? Consider "UUUUAGCAAUAUUACGCGAG"
Result: MET

Q: Is self-splicing fitness (ln) at least -3? Consider "GAAAAGCAAUAUUACGUGUA"
Result: MET

Q: Is self-splicing fitness (ln) at least -3? Consider "UUCGAGCAAUAUUACGACAU"
Result: NOT MET

Q: Is self-splicing fitness (ln) at least -3? Consider "GAAUAGCAAUAUUACGACCG"
Result: MET

Q: Is self-splicing fitness (ln) at least -3? Consider "AUGAAGCAAUAUUACGCUGG"
Result: MET

Q: Is self-splicing fitness (ln) at least -3? Consider "AAGUAGCAAUAUUACGUUGA"
Result: NOT MET

Q: Is self-splicing fitness (ln) at least -3? Consider "CCGGAGCAAUAUUACGCGGG"
Result: NOT MET

Q: Is self-splicing fitness (ln) at least -3? Consider "CAUUAGCAAUAUUACGCAUG"
Result: NOT MET

Q: Is self-splicing fitness (ln) at least -3? Consider "GUGGAGCAAUAUUACGCGUG"
Result: MET

Q: Is self-splicing fitness (ln) at least -3? Consider "CGCGAGCAAUAUUACGAACA"
Result: NOT MET

Q: Is self-splicing fitness (ln) at least -3? Consider "CGUCAGCAAUAUUACGUAGC"
Result: MET

Q: Is self-splicing fitness (ln) at least -3? Consider "UUACAGCAAUAUUACGGCAU"
Result: MET

Q: Is self-splicing fitness (ln) at least -3? Consider "ACAUAGCAAUAUUACGAAUG"
Result: MET

Q: Is self-splicing fitness (ln) at least -3? Consider "GGUUAGCAAUAUUACGAGUA"
Result: NOT MET

Q: Is self-splicing fitness (ln) at least -3? Consider "GGGGAGCAAUAUUACGCGGG"
Result: MET

Q: Is self-splicing fitness (ln) at least -3? Consider "GCCAAGCAAUAUUACGACCU"
Result: MET

Q: Is self-splicing fitness (ln) at least -3? Consider "GCUAAGCAAUAUUACGAUGC"
Result: NOT MET

Q: Is self-splicing fitness (ln) at least -3? Consider "ACCCAGCAAUAUUACGUAAG"
Result: MET

Q: Is self-splicing fitness (ln) at least -3? Consider "UUGAAGCAAUAUUACGAUGA"
Result: MET

Q: Is self-splicing fitness (ln) at least -3? Consider "CCAAAGCAAUAUUACGCCAU"
Result: NOT MET

Q: Is self-splicing fitness (ln) at least -3? Consider "UAAAAGCAAUAUUACGCGGU"
Result: NOT MET

Q: Is self-splicing fitness (ln) at least -3? Consider "ACUCAGCAAUAUUACGUUUG"
Result: MET

Q: Is self-splicing fitness (ln) at least -3? Consider "UAGAAGCAAUAUUACGUUGU"
Result: NOT MET

Q: Is self-splicing fitness (ln) at least -3? Consider "GCAGAGCAAUAUUACGAUUC"
Result: MET

Q: Is self-splicing fitness (ln) at least -3? Consider "AUGAAGCAAUAUUACGCUUC"
Result: MET

Q: Is self-splicing fitness (ln) at least -3? Consider "GCAUAGCAAUAUUACGGGGC"
Result: NOT MET

Q: Is self-splicing fitness (ln) at least -3? Consider "CAGUAGCAAUAUUACGCUUA"
Result: MET

Q: Is self-splicing fitness (ln) at least -3? Consider "CCCUAGCAAUAUUACGAUAG"
Result: MET

Q: Is self-splicing fitness (ln) at least -3? Consider "AAGAAGCAAUAUUACGGAGG"
Result: NOT MET

Q: Is self-splicing fitness (ln) at least -3? Consider "AGCCAGCAAUAUUACGCAUC"
Result: NOT MET

Q: Is self-splicing fitness (ln) at least -3? Consider "UAUCAGCAAUAUUACGUGUC"
Result: NOT MET

Q: Is self-splicing fitness (ln) at least -3? Consider "UUUAAGCAAUAUUACGCGUA"
Result: MET

Q: Is self-splicing fitness (ln) at least -3? Consider "ACAUAGCAAUAUUACGGGCU"
Result: MET

Q: Is self-splicing fitness (ln) at least -3? Consider "AACAAGCAAUAUUACGGGUG"
Result: MET

Q: Is self-splicing fitness (ln) at least -3? Consider "AUCUAGCAAUAUUACGGGUU"
Result: NOT MET

Q: Is self-splicing fitness (ln) at least -3? Consider "AGUAAGCAAUAUUACGAUUU"
Result: MET

Q: Is self-splicing fitness (ln) at least -3? Consider "UUGUAGCAAUAUUACGUUAU"
Result: MET

Q: Is self-splicing fitness (ln) at least -3? Consider "CUCAAGCAAUAUUACGCUCA"
Result: NOT MET

Q: Is self-splicing fitness (ln) at least -3? Consider "UCCAAGCAAUAUUACGACCC"
Result: NOT MET

Q: Is self-splicing fitness (ln) at least -3? Consider "CGGAAGCAAUAUUACGUAUA"
Result: MET

Q: Is self-splicing fitness (ln) at least -3? Consider "UGCUAGCAAUAUUACGCGAU"
Result: NOT MET

Q: Is self-splicing fitness (ln) at least -3? Consider "CUGCAGCAAUAUUACGGAAC"
Result: NOT MET

Q: Is self-splicing fitness (ln) at least -3? Consider "GGACAGCAAUAUUACGCAGC"
Result: MET

Q: Is self-splicing fitness (ln) at least -3? Consider "UAAUAGCAAUAUUACGGUAU"
Result: NOT MET

Q: Is self-splicing fitness (ln) at least -3? Consider "AUGUAGCAAUAUUACGGCGA"
Result: MET
